// data source = patent US8314127B2

Documented Ki across a set of compounds
test_system: CCR3 (Homo sapiens, UniProt P51677)
Sequence (P51677 whole entry): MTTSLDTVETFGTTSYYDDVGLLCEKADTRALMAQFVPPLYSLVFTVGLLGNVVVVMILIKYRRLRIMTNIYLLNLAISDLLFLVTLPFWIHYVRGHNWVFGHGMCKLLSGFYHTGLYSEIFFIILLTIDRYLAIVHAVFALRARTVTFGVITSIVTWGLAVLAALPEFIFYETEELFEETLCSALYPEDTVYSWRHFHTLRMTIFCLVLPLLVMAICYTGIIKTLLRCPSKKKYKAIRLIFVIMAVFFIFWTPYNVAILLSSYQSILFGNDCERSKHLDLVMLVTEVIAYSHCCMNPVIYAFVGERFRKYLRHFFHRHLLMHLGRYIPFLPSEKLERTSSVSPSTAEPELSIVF
method_notes: Compound affinity at human recombinant CCR3 receptors, radioligand competition on CHO-K1 cell membranes
Format: binding
Parameters: expressed in transfected cells; host or cells: CHO-K1
protocol_conditions: 2 nM [3H]-4-(2,4-dichloro-3-methylphenoxy)-1'-[4-(methylsulfonyl)benzoyl]-1,4'-bipiperidine, 2 h at 37° C., mean of minimum 2 experiments; read-out: CCR3 pKi (converted)
Reply numerically in nM, unit not repeated.

In the examples that follow, each entry is paired with its recorded Ki.
>  <molecule_smiles>
CCc1c(OC2CCN(CC3CCN([C@@H](Cc4ccccc4)C(=O)O)CC3)CC2)ccc(Cl)c1Cl

>  <test_system>
CCR3 (Homo sapiens, UniProt P51677)

>  <unit_descriptor>
nM

>  <Ki>
1.26

$$$$
>  <molecule_smiles>
Cc1c(OC2CCN(CC3CCN([C@@H](Cc4ccc(C#N)cc4)C(=O)O)CC3)CC2)ccc(Cl)c1Cl

>  <test_system>
CCR3 (Homo sapiens, UniProt P51677)

>  <unit_descriptor>
nM

>  <Ki>
0.501

$$$$

Asked: Which Ki is listed for `COc1ccccc1C[C@@H](C(=O)O)N1CCC(CN2CCC(Oc3ccc(Cl)c(Cl)c3C)CC2)CC1` ?
Given back: 0.631

Asked: Thanks! And `CCc1c(OC2CCN(CC3CCN([C@@H](Cc4ccc(F)cc4)C(=O)O)CC3)CC2)ccc(Cl)c1Cl` ?
Given back: 0.501

----------
test_system: CCR3 (Homo sapiens, UniProt P51677)
method_notes: Eotaxin-2-induced shape change in eosinophils in human blood in vitro
Assay type: cell-based
Parameters: Human blood, collected by venous puncture into 9 mL lithium-heparin tubes; endogenous in cells; host or cells: eosinophils in human whole blood
protocol_conditions: eotaxin-2 E/[A] curve displacement, 4 min at 37° C., flow cytometry forward scatter, read-out: CCR3 pA2 (converted)
assay_endpoint: Kb

>  <molecule>
CCc1c(OC2CCN(CC3CCN([C@@H](Cc4ccc(F)cc4)C(=O)O)CC3)CC2)ccc(Cl)c1Cl [Example 14]

>  <test_system>
CCR3 (Homo sapiens, UniProt P51677)

>  <Kb>
200 nM

$$$$

Asked: Which Kb is listed for Cc1c(OC2CCN(CC3CCN([C@@H](Cc4ccc(C#N)cc4)C(=O)O)CC3)CC2)ccc(Cl)c1Cl [Example 3] ?
Given back: 20 nM

Asked: Thanks! And COc1ccccc1C[C@@H](C(=O)O)N1CCC(CN2CCC(Oc3ccc(Cl)c(Cl)c3C)CC2)CC1 [Example 2] ?
Given back: 20 nM

Asked: Thanks! And CCc1c(OC2CCN(CC3CCN([C@@H](Cc4ccccc4)C(=O)O)CC3)CC2)ccc(Cl)c1Cl [Example 13] ?
Given back: 200 nM
